target: activated p38α (Homo sapiens); test: Kinase assay (p38 MAP kinase assay), ATF2 phosphorylation ELISA; conditions: 100 μM ATP, 10 ng activated p38α, ATF2 substrate; read-out: Inhibition of p 38 MAP kinase assay IC50
Sequence (Q16539 whole entry): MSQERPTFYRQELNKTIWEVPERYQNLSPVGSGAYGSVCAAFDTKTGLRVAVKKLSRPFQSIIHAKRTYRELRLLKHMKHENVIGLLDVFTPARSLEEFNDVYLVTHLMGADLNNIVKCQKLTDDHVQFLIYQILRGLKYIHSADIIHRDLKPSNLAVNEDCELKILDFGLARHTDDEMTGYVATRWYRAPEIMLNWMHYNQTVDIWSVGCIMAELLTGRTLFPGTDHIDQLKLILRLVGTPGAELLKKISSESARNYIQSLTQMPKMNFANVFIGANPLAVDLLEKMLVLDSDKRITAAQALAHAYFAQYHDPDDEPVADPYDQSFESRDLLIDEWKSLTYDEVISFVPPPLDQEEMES
pIC50: −log10 of the molar value.
readout-label: pIC50

compound="Nc1ccccc1Nc1ccc2c(c1)OCc1ccccc1C2=O [Example 5]" endpoint_value=6.52
compound="COc1ccccc1Nc1ccc2c(c1)CCc1ccccc1C2=O [Example 28]" endpoint_value=6.80
compound="Nc1ccccc1Nc1ccc2c(c1)SCc1ccccc1C2=O [Example 4]" endpoint_value=5.96
